B1: POU domain, class 3, transcription factor 3, residues 320 to 388; numbered along this chain, P20264 (parent)
chain: DDLEQFAKQFKQRRIKLGFTQADVGLALGTLYGNVFSQTTICRFEALQLSFKNMCKLKPLLNKWLEEAD

# Variants of: B1
# Experiment Summary: abundance fitness (aPCA) (normalised: wild type 0, dead -1); higher = more abundant; growth selection in yeast, the domain comes from the species named
# Details: Homo sapiens
Reported abundance fitness values are given for each entry in this list.
Kindly provide the number alone.

Answered cases to consult:
DDLEQFAKQFKQRRIKLGFTQADVGLALGTLYGNVCSQTTICRFEALQLSFKNMCKLKPLLNKWLEEAD: 0.219
DDLEQFAKQFKQRRIKLGFTQADVGLALGTLRGNVFSQTTICRFEALQLSFKNMCKLKPLLNKWLEEAD: -0.44
DDLEQFAKQFKQRRIKLGFTQADVGLALGTLYGNVFSATTICRFEALQLSFKNMCKLKPLLNKWLEEAD: -0.143

*Q* I'd like to know its abundance fitness. The variant in question is DDLEQFAKQFKQRRIKLGFTQADVGLALGTLYGNVMSQTTICRFEALQLSFKNMCKLKPLLNKWLEEAD
*A* 0.021

*Q* I'd like to know its abundance fitness. The variant in question is DDLEQFAKQFKQRRIKLGFTQADVGLALGTLYGNVFSQTTIKRFEALQLSFKNMCKLKPLLNKWLEEAD
*A* 0.13

*Q* I'd like to know its abundance fitness. The variant in question is DDLEQFAKQFKQRRIKLGFTQADVGLALGTLYGNVFSQTTILRFEALQLSFKNMCKLKPLLNKWLEEAD
*A* -0.193

*Q* I'd like to know its abundance fitness. The variant in question is DDLEQFAKQFKQRRIKLGFTQADVGLALGTLYGNVFSQTTICRAEALQLSFKNMCKLKPLLNKWLEEAD
*A* -1.04

*Q* I'd like to know its abundance fitness. The variant in question is DDLEQFAKQFKQRRIKLGFTQADVGLALGLLYGNVFSQTTICRFEALQLSFKNMCKLKPLLNKWLEEAD
*A* -0.325

*Q* I'd like to know its abundance fitness. The variant in question is DDLEQFAKQFKQRRIKLGFTQADVGLALGTLYGNVVSQTTICRFEALQLSFKNMCKLKPLLNKWLEEAD
*A* 0.017

*Q* I'd like to know its abundance fitness. The variant in question is DDLEQFAKQFKQRRIKLGFTQADVGLALGMLYGNVFSQTTICRFEALQLSFKNMCKLKPLLNKWLEEAD
*A* -0.077
